These entries and their values trace back to patent US20260200882A1.

# Test system: Mouse macrophages (RAW264.7)
# Test Description: Toxicity to macrophages by MTT method
# Type: cell-based
# Conditions Used: RAW264.7, MTT, 48 h culture with compound
Measure: IC50

Query string: Give the measured IC50 for Oc1cc(/C=C/c2cncs2)cc(O)c1C1=CCCC1
Result string: > 1000 nM

Query string: Give the measured IC50 for Oc1cc(/C=C/c2cscn2)cc(O)c1C1=CCCC1
Result string: > 1000 nM

Query string: Give the measured IC50 for COc1cc(/C=C/c2ccoc2)cc(O)c1C(C)C
Result string: > 1000 nM

====

# System: LPS-induced NO production in macrophages (RAW264.7)
# Test Description: Inhibition of LPS-induced NO production in macrophages
# Format: cell-based, mouse
# Design: dose or concentration left out as unconfirmed
# Conditions Used: LPS-induced RAW264.7, 24 h
For each record, write down the corresponding Inhibitory activity against nitric oxide production (%).

Query string: Give the measured Inhibitory activity against nitric oxide production (%) for CC(C)c1c(O)cc(/C=C/c2cscn2)cc1O
Result string: <50%

Query string: Give the measured Inhibitory activity against nitric oxide production (%) for C=C(C)c1c(O)cc(/C=C/c2cscn2)cc1O
Result string: <50%

Query string: Give the measured Inhibitory activity against nitric oxide production (%) for COc1cc(/C=C/c2ccsc2)cc(O)c1C1CC1
Result string: >50%

Query string: Give the measured Inhibitory activity against nitric oxide production (%) for Oc1cc(/C=C/c2ccoc2)cc(O)c1C1CC1
Result string: <50%

Query string: Give the measured Inhibitory activity against nitric oxide production (%) for CC(C)c1c(O)cc(/C=C/c2cncs2)cc1O
Result string: >50%

Query string: Give the measured Inhibitory activity against nitric oxide production (%) for C=C(C)c1c(O)cc(/C=C/c2cncs2)cc1O
Result string: <50%

Query string: Give the measured Inhibitory activity against nitric oxide production (%) for Oc1cc(/C=C/c2ccsc2)cc(O)c1C1CCCC1
Result string: <50%

Query string: Give the measured Inhibitory activity against nitric oxide production (%) for Oc1cc(/C=C/c2cncs2)cc(O)c1C1=CCCC1
Result string: <50%

Query string: Give the measured Inhibitory activity against nitric oxide production (%) for Oc1cc(/C=C/c2cscn2)cc(O)c1C1CCCC1
Result string: <50%

Query string: Give the measured Inhibitory activity against nitric oxide production (%) for Oc1cc(/C=C/c2ccoc2)cc(O)c1Br
Result string: <50%

Query string: Give the measured Inhibitory activity against nitric oxide production (%) for Oc1cc(/C=C/c2ccsc2)cc(O)c1C1CC1
Result string: <50%

Query string: Give the measured Inhibitory activity against nitric oxide production (%) for COc1cc(/C=C/c2ccsc2)cc(O)c1Br
Result string: >50%

Query string: Give the measured Inhibitory activity against nitric oxide production (%) for COc1cc(/C=C/c2ccoc2)cc(O)c1C(C)C
Result string: >50%

Query string: Give the measured Inhibitory activity against nitric oxide production (%) for CC(C)c1c(O)cc(/C=C/c2ccoc2)cc1O
Result string: <50%

Query string: Give the measured Inhibitory activity against nitric oxide production (%) for Oc1cc(/C=C/c2cscn2)cc(O)c1C1=CCCC1
Result string: <50%

Query string: Give the measured Inhibitory activity against nitric oxide production (%) for Oc1cc(/C=C/c2ccsc2)cc(O)c1C1=CCCC1
Result string: <50%
